Data origin: ChEMBL document CHEMBL1148292

I'd be grateful if you could share measured pKi for these entries.
experimentalSystem: Adenosine receptor A2b (Homo sapiens, UniProt P29275)
Sequence (P29275 whole entry): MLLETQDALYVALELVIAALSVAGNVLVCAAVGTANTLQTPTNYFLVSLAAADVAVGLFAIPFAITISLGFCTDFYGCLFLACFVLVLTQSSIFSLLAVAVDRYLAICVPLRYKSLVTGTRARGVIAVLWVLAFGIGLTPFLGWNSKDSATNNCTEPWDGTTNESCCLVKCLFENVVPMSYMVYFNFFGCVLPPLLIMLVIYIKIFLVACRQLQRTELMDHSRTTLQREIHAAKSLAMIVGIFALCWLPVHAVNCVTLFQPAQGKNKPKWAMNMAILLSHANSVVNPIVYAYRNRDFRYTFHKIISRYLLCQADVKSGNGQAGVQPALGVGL
measurementDescription: Binding affinity of compound for displacement of specific [3H]- DPCPX binding at human A2B receptors expressed in HEK293 cells
Format: cell-based
Numbers only, as −log10 of the molar value.

# annotated cases, reported pKi shown
[
  {
    "substanceSmiles": "CCCn1c(=O)c2[nH]c(-c3ccc(NC(=O)Cc4ccccc4)cc3)nc2n(CCC)c1=O",
    "pKi": 6.19
  },
  {
    "substanceSmiles": "CCCn1c(=O)c2nc(-c3ccc(NC(=O)Nc4cccc(Cl)c4)cc3)[nH]c2n(CCC)c1=O",
    "pKi": 6.96
  },
  {
    "substanceSmiles": "CCCn1c(=O)c2c(nc(-c3ccc(N)cc3)n2C)n(CCC)c1=O",
    "pKi": 6.29
  },
  {
    "substanceSmiles": "CCCn1c(=O)c2[nH]c(-c3cc(OCC(=O)N4CCN(C)CC4)nn3C)nc2n(CCC)c1=O",
    "pKi": 7.12
  },
  {
    "substanceSmiles": "CCCn1c(=O)c2[nH]c(-c3cc(OCC(=O)N4CCN(c5ccccc5)CC4)nn3C)nc2n(CCC)c1=O",
    "pKi": 7.92
  },
  {
    "substanceSmiles": "CCCn1c(=O)c2[nH]c(-c3ccc(NC(=O)Cc4ccc(OC)c(OC)c4)cc3)nc2n(CCC)c1=O",
    "pKi": 7.02
  },
  {
    "substanceSmiles": "CCCn1c(=O)c2[nH]c(-c3ccc(NC(=O)Nc4cccc(OC)c4)cc3)nc2n(CCC)c1=O",
    "pKi": 7.24
  },
  {
    "substanceSmiles": "Cn1nc(-c2nc3c([nH]2)c(=O)n(C)c(=O)n3C)cc1N",
    "pKi": 6.76
  },
  {
    "substanceSmiles": "CCCn1c(=O)c2[nH]c(-c3cc(NC(=O)Cc4ccc(F)c(F)c4)nn3C)nc2n(CCC)c1=O",
    "pKi": 7.11
  },
  {
    "substanceSmiles": "CCCn1c(=O)c2[nH]c(-c3cc(NC(=O)Cc4ccc(C(F)(F)F)cc4)nn3C)nc2n(CCC)c1=O",
    "pKi": 6.89
  }
]

State recorded pKi for all listed molecules.
1. CCCn1c(=O)c2nc(-c3ccc(N)cc3)[nH]c2n(CCC)c1=O
2. CCCn1c(=O)c2nc(-c3cc(OCC(=O)Nc4ccc5c(c4)OCO5)no3)[nH]c2n(CCC)c1=O
3. CCCn1c(=O)c2[nH]c(-c3cc(OCC(=O)Nc4ccc(C)cn4)nn3C)nc2n(CCC)c1=O

Solution:
1: 8.05; 2: 7.33; 3: 5.99

====

I'd be grateful if you could share measured Ki for these entries.
experimentalSystem: Adenosine receptor A1 (Homo sapiens)
Sequence (P30542 whole entry): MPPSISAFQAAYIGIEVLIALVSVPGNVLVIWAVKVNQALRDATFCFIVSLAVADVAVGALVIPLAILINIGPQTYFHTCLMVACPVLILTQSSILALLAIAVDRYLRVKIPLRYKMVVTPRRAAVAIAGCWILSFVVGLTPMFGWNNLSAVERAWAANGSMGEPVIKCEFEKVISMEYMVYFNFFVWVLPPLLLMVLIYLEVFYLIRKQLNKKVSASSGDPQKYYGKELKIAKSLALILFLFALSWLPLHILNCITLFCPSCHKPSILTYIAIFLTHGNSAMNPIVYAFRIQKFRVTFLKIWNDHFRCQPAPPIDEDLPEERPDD
measurementDescription: Displacement of specific [3H]DPCPX binding at human adenosine A1 receptor expressed in CHO cells
Assay type: cell-based

[
  {
    "substanceSmiles": "CCCn1c(=O)c2[nH]c(-c3cc(NC(=O)Cc4cccc(OC)c4)nn3C)nc2n(CCC)c1=O",
    "Ki": "> 1000 nM"
  }
]

State recorded Ki for all listed compounds.
1. CCCn1c(=O)c2[nH]c(-c3cc(NC(=O)[C@H](C)c4ccccc4)nn3C)nc2n(CCC)c1=O
2. CCCn1c(=O)c2[nH]c(-c3cc(OCC(=O)Nc4ccc(N5CCOCC5)cc4)nn3C)nc2n(CCC)c1=O
3. CCCn1c(=O)c2nc(-c3cc(OCC(=O)Nc4ccc5c(c4)OCO5)no3)[nH]c2n(CCC)c1=O
4. CCCn1c(=O)c2[nH]c(-c3cc(OCC(=O)Nc4ccc(OC)c(OC)c4)no3)nc2n(CCC)c1=O
5. CCCn1c(=O)c2[nH]c(-c3ccc(NC(=O)Nc4cccc(OC)c4)cc3)nc2n(CCC)c1=O
6. CCCn1c(=O)c2[nH]c(-c3cc(OCC(=O)N4CCN(c5ccc(F)cc5)CC4)nn3C)nc2n(CCC)c1=O
7. CCCn1c(=O)c2[nH]c(-c3ccc(OCC(=O)Nc4ccc(I)cc4)nn3)nc2n(CCC)c1=O
8. CCCn1c(=O)c2[nH]c(-c3ccc(NC(=O)Cc4ccc(OC)c(OC)c4)cc3)nc2n(CCC)c1=O

Solution:
> 1000 nM
> 1000 nM
> 1000 nM
> 1000 nM
1170 nM
> 1000 nM
> 1000 nM
1730 nM

====

experimentalSystem: Adenosine receptor A2b (Homo sapiens)
measurementDescription: Inhibitory activity against cAMP production in CHO cells transfected with human A2B adenosine receptor
observationType: log10 IC50 (log10 of the value in nM)
Each number you see is log10 of IC50, and the unit inside the log is nM.

[
  {
    "substanceSmiles": "CCCn1c(=O)c2[nH]c(-c3cc(OCC(=O)N4CCN(C)CC4)nn3C)nc2n(CCC)c1=O",
    "experimentalSystem": "Adenosine receptor A2b (Homo sapiens)",
    "log10 IC50": 2.51
  },
  {
    "substanceSmiles": "CCCn1c(=O)c2[nH]c(-c3cc(OCC(=O)Nc4ccc(Cl)c(Cl)c4)nn3C)nc2n(CCC)c1=O",
    "experimentalSystem": "Adenosine receptor A2b (Homo sapiens)",
    "log10 IC50": 1.78
  },
  {
    "substanceSmiles": "CCCn1c(=O)c2[nH]c(-c3cc(OCC(=O)Nc4ccc(C(=O)OCC)cc4)nn3C)nc2n(CCC)c1=O",
    "experimentalSystem": "Adenosine receptor A2b (Homo sapiens)",
    "log10 IC50": 2.08
  }
]

State recorded log10 IC50 for all listed molecules.
1. CCCn1c(=O)c2[nH]c(-c3cc(OCC(=O)Nc4ccc(C)cc4)nn3C)nc2n(CCC)c1=O
2. CCCn1c(=O)c2[nH]c(-c3cc(OCC(=O)Nc4ccc(C)c(C)c4)nn3C)nc2n(CCC)c1=O
3. CCCn1c(=O)c2[nH]c(-c3cc(NC(=O)Cc4cccc(F)c4)nn3C)nc2n(CCC)c1=O

Solution:
[1.88, 1.60, 2.20]

====

pKi: −log10 of the molar value.
// endpoint pKi / system Adenosine receptor A2a (Homo sapiens, UniProt P29274)

[
  {
    "substanceSmiles": "CCCn1c(=O)c2[nH]c(-c3cc(N)n(C)n3)nc2n(CCC)c1=O",
    "pKi": "< 6.00"
  },
  {
    "substanceSmiles": "CC(C)Cn1c(=O)c2nc(-c3cc(OCC(=O)Nc4ccc(F)cc4)nn3C)[nH]c2n(CC(C)C)c1=O",
    "pKi": "< 6.00"
  },
  {
    "substanceSmiles": "CCCn1c(=O)c2[nH]c(-c3cc(OCC(=O)Nc4ccc(C(C)=O)cc4)nn3C)nc2n(CCC)c1=O",
    "pKi": "< 6.00"
  },
  {
    "substanceSmiles": "CCCn1c(=O)c2c(nc(-c3ccc(N)cc3)n2C)n(CCC)c1=O",
    "pKi": "< 6.00"
  },
  {
    "substanceSmiles": "CCCn1c(=O)c2[nH]c(-c3cc(OCC(=O)N4CCN(Cc5ccccc5)CC4)nn3C)nc2n(CCC)c1=O",
    "pKi": "< 6.00"
  }
]

State recorded pKi for all listed compounds.
1. CCCn1c(=O)c2[nH]c(-c3cc(NC(=O)Cc4ccc(O)c(OC)c4)nn3C)nc2n(CCC)c1=O
2. CCCn1c(=O)c2[nH]c(-c3cc(NC(=O)Cc4ccccc4)n(C)n3)nc2n(CCC)c1=O
3. CCCn1c(=O)c2[nH]c(-c3cc(NC(=O)Cc4cc(OC)c(OC)c(OC)c4)nn3C)nc2n(CCC)c1=O
4. CCCn1c(=O)c2[nH]c(-c3cc(NC(=O)Cc4ccc5c(c4)OCO5)nn3C)nc2n(CCC)c1=O

Solution:
1: < 6.00; 2: < 6.00; 3: < 6.00; 4: < 6.00
